Entries below carry reported pKi on D(3) dopamine receptor (Homo sapiens).
Sequence (P35462 whole entry): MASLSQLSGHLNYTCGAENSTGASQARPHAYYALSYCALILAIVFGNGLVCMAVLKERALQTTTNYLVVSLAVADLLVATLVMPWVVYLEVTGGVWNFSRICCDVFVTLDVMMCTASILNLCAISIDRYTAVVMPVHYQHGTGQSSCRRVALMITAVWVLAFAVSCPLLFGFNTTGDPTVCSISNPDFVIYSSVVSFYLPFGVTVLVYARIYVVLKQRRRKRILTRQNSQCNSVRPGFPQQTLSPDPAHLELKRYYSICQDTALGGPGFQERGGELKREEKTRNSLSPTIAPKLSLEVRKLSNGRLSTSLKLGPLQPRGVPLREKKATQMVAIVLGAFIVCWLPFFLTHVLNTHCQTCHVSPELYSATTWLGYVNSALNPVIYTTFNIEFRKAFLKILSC
Give bare numbers, as −log10 of the molar value.

Example compounds with recorded pKi:
{"sampleSmiles": "Cn1c(=O)ccn(CCCCN2CCN(c3cc(C(F)(F)F)nc(C(C)(C)C)n3)CC2)c1=O", "experimentalEndpoint": "pKi", "assayResult": 7.93}
{"sampleSmiles": "CCc1cn(CCCCN2CCN(c3cc(C(F)(F)F)nc(C(C)(C)C)n3)CC2)c(=O)[nH]c1=O", "experimentalEndpoint": "pKi", "assayResult": 8.77}
{"sampleSmiles": "CC(C)(C)c1nc(N2CCN(CCCCn3ccc(N4CCC4)nc3=O)CC2)cc(C(F)(F)F)n1", "experimentalEndpoint": "pKi", "assayResult": 8.36}

Note: attention shifts to another entry.
-- ask In one line, give reported pKi of the entry `Cc1cn(CCCCN2CCN(c3cc(C(F)(F)F)nc(C(C)(C)C)n3)CC2)c(=O)n(C)c1=O` .
-- reply 7.98

---

assay: Permeability across Caco-2 cell membrane; format: ADME, cell-based; conditions: human
experimentalEndpoint: Papp (×10⁻⁶ cm/s)
One number for each entry, in ×10⁻⁶ cm/s.

-- ask In one line, give reported Papp of the entry `Cc1cn(CCCCN2CCN(c3cc(C(F)(F)F)nc(C(C)(C)C)n3)CC2)c(=O)[nH]c1=O` .
-- reply 1.94
